For each record, write down the corresponding normalized growth.
assay_info: chemical genetic growth profiling, strain panel (AID 1159580);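 note: tested at 20 µM; growth read once vehicle control cultures reached saturation at 30 °C; 1 = growth at the plate median or of vehicle wells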
measurement_conditions: S. cerevisiae deletion strains, growth OD, locus YHR200W, strain rpn10, stronger effect = lower value
About 2,000 (36%) of roughly 5,500 compounds were called active. About 18% were inconclusive and are not listed. Some of the results follow.
Give a plain numeric answer without units written out.

Notebook: CC(=O)Oc1ccc2c(c1C(C)C)CCC1C(C)(C)CCC[C@]21C (stereo not given in full) , normalized growth read as 1

The molecule listed as `CCOC(=O)c1c(C)cc(OC)cc1O` has a reported normalized growth of 0.926

Data point: `COc1cc2occc2c2oc(=O)ccc12` ; normalized growth = 0.93

# molecule NC(=O)NCCCC(N)C(=O)O (stereo not given) ; its normalized growth = 0.994

So, CCN(Cc1ccncc1)C(=O)C(CO)c1ccccc1 (stereo not given) ? Its normalized growth was 0.992

The molecule listed as NC(=O)NCC(N)C(=O)O (stereo not given) has a reported normalized growth of 0.986

The recorded normalized growth for CC(C)c1c(O)ccc2c1CCC1[C@@](C)(C=O)CCC[C@]21C (stereo not given in full) is 0.578

# normalized growth of CC(C)(C)NCC(O)c1cc(O)cc(O)c1 (stereo not given) = 0.987

Consider CCCCC1C(=O)N(c2ccccc2)N(c2ccc(O)cc2)C1=O (stereo not given) . Its measured normalized growth is 0.988

Lookup result for `Cc1cc(OC(=O)c2c(C)cc(O)cc2O)cc(O)c1C(=O)O` ; measured normalized growth: 0.985

// recorded normalized growth for `COC(=O)c1c(C)cc(OC)cc1O` : 0.965

Measured normalized growth, O=C(Cc1cccs1)NC1C(=O)N2C(C(=O)[O-])=C(C[n+]3ccccc3)CSC12 (stereo not given) : 0.994

What the record says about `CCOCN(C(=O)CCl)c1c(C)cccc1CC` : normalized growth is 0.988

# normalized growth of CN[C@@H]1C(O)[C@@H](O[C@@H]2[C@@H](O)[C@H](O[C@H]3OC(CN)=CC[C@H]3N)[C@@H](N)C[C@H]2N)OC[C@]1(C)O (stereo not given in full) = 1

For record COC(=O)[C@]1(C)CCC[C@]2(C)c3ccc(C(C)C)cc3C(=O)CC12 (stereo not given in full) the listed normalized growth is 0.993

Entry COC(=O)[C@@]1(C)CCC[C@]2(C)c3ccc(O)c(C(C)C)c3CCC12 (stereo not given in full) , normalized growth reported as 0.871

Lab note: Oc1cc2c(cc1O)C1c3ccc(O)c(O)c3OCC1(O)C2 (stereo not given) gave normalized growth of 0.976

GET /value?item= `COc1ccc2ccc(=O)oc2c1` &field=normalized growth returns 1.01

Sure, the documented normalized growth for CCCCCCC(C)OC(=O)COc1ccc(Cl)cc1Cl (stereo not given) is 0.993

Entry `CCc1cc(C(N)=S)ccn1` , normalized growth reported as 0.98

Looking up `NC(=NCCC[C@H](N)C(=O)O)N[N+](=O)[O-]` , I found its normalized growth recorded as 0.996

The reported value for `CCCCCc1c2c(cc(O)c1C(=O)O)OC(=O)c1c(cc(OC)cc1C(=O)CCCC)O2` in terms of normalized growth is 0.987

Lab note: `Cc1cc(OC(=O)c2c(C)cc(OC(=O)c3c(C)cc(O)cc3O)cc2O)cc(O)c1C(=O)O` gave normalized growth of 0.994

Record `CCOC(=O)c1c(C)cc(O)cc1O` , field normalized growth: 0.864

Entry CCC(N)C(O)c1ccc(O)c(O)c1 (stereo not given) , normalized growth reported as 0.994

----------
assay_info: chemical genetic growth profiling, strain panel (AID 1159580);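 note: tested at 20 µM; growth read once vehicle control cultures reached saturation at 30 °C; 1 = growth at the plate median or of vehicle wells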
measurement_conditions: S. cerevisiae deletion strains, growth OD, locus YDR101C, strain arx1
Among all 5,500 compounds or so, about 2,000 (36%) were called active. Another 18% or so got no clear call; they are omitted. No stated cut-off is given here; in the data, active means normalized growth mostly below about 0.91 (no sharp cut-off); inconclusive means no clear call, values can overlap the other calls; inactive means mostly above about 0.92. The list shows a part of the results.
Outcomes you can answer with include only these: y for active, n for inactive

Q: Hello, I am checking results. What call was entered for CC1CCC2(OC1)OC1CC3C4CC[C@H]5C[C@@H](O)CC[C@]5(C)C4CC(=O)[C@]3(C)C1C2C (some centres undefined) ?
Result: n

Q: Record lookup: outcome of this test for CNC(C)C(O)c1ccccc1 (centres undefined) ?
Result: n

Q: Recorded test outcome, item C[C@@H]1CC[C@@]2(OC1)O[C@H]1CC3C4CC[C@H]5C[C@@H](O)CC[C@]5(C)C4CC[C@]3(C)[C@H]1[C@@H]2C (some centres undefined)
Result: n

Q: Given `CCC/C=C1\OC(=O)C2=C1CCC=C2` , state the outcome it received in this test.
Result: n

Q: Name the outcome recorded for C[C@@H]1CC[C@@]2(NC1)O[C@H]1C[C@H]3C4CC=C5C[C@@H](O)CC[C@]5(C)C4CC[C@]3(C)C1[C@@H]2C (some centres undefined) in the assay.
Result: y

Q: So what was the verdict on CCC(c1ccc(O)cc1)C(CC)c1ccc(O)cc1 (centres undefined) in this test?
Result: n

Q: For this compound, state the assay outcome: CC1CC[C@@]2(OC1)O[C@H]1CC3C4CC[C@@H]5C[C@@H](O)CC[C@]5(C)C4CC[C@]3(C)[C@H]1[C@@H]2C (some centres undefined)
Result: n

Q: Fill in: this test's call for `C[C@@H]([C@H](O)c1ccccc1)N(C)C` is ___
Result: n

Q: I would be grateful if you could indicate the recorded call for CC1CC[C@]2(NC1)O[C@H]1CC3C4CC[C@H]5C[C@@H](O)CC[C@]5(C)C4CC[C@]3(C)[C@H]1[C@@H]2C (some centres undefined) .
Result: y

----------
assay_info: chemical genetic growth profiling, strain panel (AID 1159580);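 note: tested at 20 µM; growth read once vehicle control cultures reached saturation at 30 °C; 1 = growth at the plate median or of vehicle wells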
measurement_conditions: S. cerevisiae deletion strains, growth OD, locus YJL154C, strain vps35
The whole screen tested about 5,500 compounds, of which about 2,000 (36%) were called active. Roughly 18% stayed inconclusive and do not appear here. No stated cut-off is given here; in the data, active means normalized growth mostly below about 0.91 (no sharp cut-off); inconclusive means no clear call, values can overlap the other calls; inactive means mostly above about 0.92. The list shows a part of the results.
Mark one answer only. Choices: active, inactive

Q: State the result this test recorded for `CC/C(=C(/CC)c1ccc(O)cc1)c1ccc(O)cc1` .
Result: inactive

Q: Could you kindly confirm the outcome this assay logged for C[C@]12CCC3c4ccc(O)cc4CCC3C1CC[C@@H]2O (stereo partly specified) ?
Result: inactive

Q: Fill in: this test's call for CCC(N)C(O)c1ccc(O)c(O)c1 (stereo unspecified) is ___
Result: inactive

Q: What did this assay record as the result for C=C1CCC2(OC1)OC1CC3C4CC=C5CC(O)CC(O)C5(C)C4CCC3(C)C1C2C (stereo unspecified) ?
Result: inactive

Q: Which outcome did this test record for the compound `O=C(O[C@@H]1Cc2c(O)cc(O)cc2O[C@@H]1c1cc(O)c(=O)c2c(O)c(O)cc([C@H]3Oc4cc(O)cc(O)c4C[C@H]3OC(=O)c3cc(O)c(O)c(O)c3)c2c1)c1cc(O)c(O)c(O)c1` ?
Result: active

Q: Hi, do you know how CC1(C)C(=O)C=C[C@@]2(C)C1C[C@@H](O)[C@]1(C)C2CC[C@@]2(C)[C@H](c3ccoc3)OC(=O)[C@H]3O[C@]321 (stereo partly specified) came out in this test?
Result: inactive

Q: Which result was noted for this compound in the test: O=C1C=C2C(=CCOC2O)O1 (stereo unspecified)
Result: active

Q: I would be grateful if you could indicate the recorded call for C[C@@H]1CC[C@@]2(NC1)O[C@H]1C[C@H]3C4CC=C5C[C@@H](O)CC[C@]5(C)C4CC[C@]3(C)C1[C@@H]2C (stereo partly specified) .
Result: active

Q: So what was the verdict on CC1(C)C(=O)C=C[C@@]2(C)C1C=C[C@]1(C)C2CC[C@@]2(C)[C@H](c3ccoc3)OC(=O)C3OC321 (stereo partly specified) in this test?
Result: inactive

Q: Short answer needed: outcome of this test for CCC(c1ccc(O)cc1)C(CC)c1ccc(O)cc1 (stereo unspecified) ?
Result: inactive

Q: Outcome? CC1CC[C@@]2(OC1)O[C@H]1CC3C4CC[C@@H]5C[C@@H](O)CC[C@]5(C)C4CC[C@]3(C)[C@H]1[C@@H]2C (stereo partly specified)
Result: active

Q: Kindly provide the recorded test outcome for the following compound: C[C@@H]1CC[C@@]2(OC1)OC1CC3C4CC=C5C[C@@H](O)CC[C@]5(C)C4CC[C@]3(C)C1[C@@H]2C (stereo partly specified)
Result: inactive

Q: For CC1(C)C=CC(=O)[C@@]2(C)C1CC(=O)[C@]1(C)C2CC[C@@]2(C)[C@H](c3ccoc3)OC(=O)C3OC321 (stereo partly specified) , what call appears in the results of this test?
Result: inactive

Q: Hi team, can someone confirm the assay call for `CC(=O)OCC1=C(C(=O)O)N2C(=O)[C@@H](NC(=O)Cc3cccs3)[C@H]2SC1` ?
Result: inactive

Q: Test call, this compound: CC(=O)O[C@@H]1CC2C(C)(C)C(=O)C=C[C@]2(C)C2CC[C@@]3(C)[C@H](c4ccoc4)OC(=O)[C@H]4O[C@]43[C@@]21C (stereo partly specified)
Result: inactive

Q: Hi, sorry to bother you, what did the test record for C[C@@H]1CC[C@@]2(OC1)O[C@H]1CC3C4CC[C@H]5C[C@@H](O)CC[C@]5(C)C4CC[C@]3(C)[C@H]1[C@@H]2C (stereo partly specified) ?
Result: inactive
